- Test system: Mycobacteroides abscessus
- protocol-text: Antimycobacterial activity against Mycobacterium abscessus FM0058 clinical isolate assessed as inhibition zone diameter at 50 ng after 3 days by disc diffusion method
- Format: functional
value-kind: diameter of the inhibition zone (DIZ) (mm)
Give the value, in units of mm, as a plain number.

Below are worked cases with known answers.
CO[C@H]1/C=C/O[C@@]2(C)Oc3c(C)c(O)c4c(c3C2=O)C(=O)C(N2CCOCC2)=C(NC(=O)/C(C)=C\C=C\[C@H](C)[C@H](O)[C@@H](C)[C@@H](O)[C@@H](C)[C@H](OC(=O)NCc2cc(-c3ccccc3)no2)[C@@H]1C)C4=O: 13
CO[C@H]1/C=C/O[C@@]2(C)Oc3c(C)c(O)c4c(c3C2=O)C(=O)C(N2CCOCC2)=C(NC(=O)/C(C)=C\C=C\[C@H](C)[C@H](O)[C@@H](C)[C@@H](O)[C@@H](C)[C@H](OC(=O)NCc2cc(-c3ccccn3)no2)[C@@H]1C)C4=O: 9
CO[C@H]1/C=C/O[C@@]2(C)Oc3c(C)c(O)c4c(c3C2=O)C(=O)C(N2CCOCC2)=C(NC(=O)/C(C)=C\C=C\[C@H](C)[C@H](O)[C@@H](C)[C@@H](O)[C@@H](C)[C@H](OC(=O)NC2CCN(Cc3ccccc3)CC2)[C@@H]1C)C4=O: 22

Proceeding to the next compound to report its diameter of the inhibition zone (DIZ).
Q: # lookup: diameter of the inhibition zone (DIZ) of CO[C@H]1/C=C/O[C@@]2(C)Oc3c(C)c(O)c4c(O)c(c(/C=N/N5CCN(C)CC5)c(O)c4c3C2=O)NC(=O)/C(C)=C\C=C\[C@H](C)[C@H](O)[C@@H](C)[C@@H](O)[C@@H](C)[C@H](OC(C)=O)[C@@H]1C [RIFAMPIN]
Ans: 0

----------
- protocol-text: Antimycobacterial activity against Mycobacterium abscessus subsp. massiliense assessed as reduction in microbial growth by CLSI method
- Assay type: functional
- assay-setup: Mycobacteroides abscessus
value-kind: MIC (µg/mL)
# output: bare number, implied unit µg/mL

// below: answered compounds
COc1ccccc1-c1cc(CNC(=O)O[C@H]2[C@H](C)[C@H](O)[C@H](C)[C@@H](O)[C@@H](C)/C=C/C=C(/C)C(=O)NC3=C(N4CCOCC4)C(=O)c4c(c(O)c(C)c5c4C(=O)[C@@](C)(O/C=C/[C@H](OC)[C@H]2C)O5)C3=O)on1: 64
COc1ccc(CNC(=O)O[C@H]2[C@H](C)[C@H](O)[C@H](C)[C@@H](O)[C@@H](C)/C=C/C=C(/C)C(=O)NC3=C(N4CCOCC4)C(=O)c4c(c(O)c(C)c5c4C(=O)[C@@](C)(O/C=C/[C@H](OC)[C@H]2C)O5)C3=O)cc1: 8
CO[C@H]1/C=C/O[C@@]2(C)Oc3c(C)c(O)c4c(c3C2=O)C(=O)C(N2CCOCC2)=C(NC(=O)/C(C)=C\C=C\[C@H](C)[C@H](O)[C@@H](C)[C@@H](O)[C@@H](C)[C@H](OC(=O)NCc2ccc(N(C)C)cc2)[C@@H]1C)C4=O: 8
CO[C@H]1/C=C/O[C@@]2(C)Oc3c(C)c(O)c4c(c3C2=O)C(=O)C(N2CCOCC2)=C(NC(=O)/C(C)=C\C=C\[C@H](C)[C@H](O)[C@@H](C)[C@@H](O)[C@@H](C)[C@H](OC(=O)NC2CCN(Cc3ccccc3)CC2)[C@@H]1C)C4=O: 0.25

Q: Given CO[C@H]1/C=C/O[C@@]2(C)Oc3c(C)c(O)c4c(c3C2=O)C(=O)C(N2CCOCC2)=C(NC(=O)/C(C)=C\C=C\[C@H](C)[C@H](O)[C@@H](C)[C@@H](O)[C@@H](C)[C@H](OC(=O)NCc2cc(-c3ccccn3)no2)[C@@H]1C)C4=O , state its recorded MIC.
Ans: 8
